# credit: patent US20230143604A1

- target-under-test: full-length human GLP-1R with an N-terminal FLAG tag (human, UniProt P43220 24-463)
- procedure-details: cell-based or functional assay
Starred links: 1 amine or outer side, 2 acyl side, 3 side chain; linkers in the order of their positions; H or OH if unused. Non-standard residues stand in square brackets, D forms with d. Groups on a side chain read outwards from the residue. No end group written: not given here. *: point of attachment. C18 diacid = O=C(O)CCCCCCCCCCCCCCCCC(=O)*; C17 diacid = O=C(O)CCCCCCCCCCCCCCCC(=O)*; γGlu = O=C(O)[C@H](CCC(=O)[*:2])N[*:1]; NMeY = CN[C@@H](Cc1ccc(O)cc1)C(=O)O; AEEA = NCCOCCOCC(=O)O; Aib = CC(C)(N)C(=O)O
readout-name: Human GLP1R cAMP EC50, HEK293T (nM)
Numeric only. Scale: nM

[NMeY][Aib]EGTFISDYSIAK([G5-γGlu-C18 diacid])DR[Aib]AQ[Aib]DFVNWLLAQRPSSGAPPPS-NH2 [Compound No. 24]: 191
YXEGTFISDYSIAXDRXAQXDFVNWLLAQRG (N-methyl Tyr 1; Aib at 2,17,20; Lys(G5-C18 diacid) at 14; C-terminal OH) [Compound No. 63]: 75.9
[NMeY][Aib]EGTFISDYSI[Aib]LDR[Aib]AQ[Aib]K([AEEA-AEEA-γGlu-γGlu-C17 diacid])FVNWLLAQSPSSGAPPPS-NH2 [Compound No. 94]: 63.1
[NMeY][Aib]EGTFISDYSI[Aib]K([AEEA-AEEA-γGlu-γGlu-C17 diacid])DR[Aib]AQ[Aib]NFVNWLLAQRGGGGS-NH2 [Compound No. 32]: 1000

Exam item: Record request: Human GLP1R cAMP EC50, HEK293T value, item [NMeY][Aib]EGTFISDYSIALDR[Aib]AQ[Aib]K([2OEGgEgE-C17 diacid])FVNWLLAQR-OH [Compound No. 9]
Marked response: 7.94

Exam item: Tell me the measured Human GLP1R cAMP EC50, HEK293T of [NMeY][Aib]EGTFISDYSIAK([γGlu-γGlu-γGlu-C17 diacid])DR[Aib]AQ[Aib]NFVNWLLAQSPSSGAPPPS-NH2 [Compound No. 12] , please.
Marked response: 955

Exam item: Recorded Human GLP1R cAMP EC50, HEK293T for [NMeY][Aib]EGTFISDYSI[Aib]LDR[Aib]K([2OEGgEgE-C18 diacid])Q[Aib]DFVNWLLAQRG-OH [Compound No. 73] , please?
Marked response: 363

Exam item: # input binder: [NMeY][Aib]EGTFISDYSIAK([G5-γGlu-C17 diacid])DR[Aib]AQ[Aib]DFVNWLLAQRPSSGAPPPS-NH2 [Compound No. 22] ; wanted: its Human GLP1R cAMP EC50, HEK293T
Marked response: 525
